Assay: clinical
Details: human, in vivo, 2.4 mg, AUC0-4 h

# COMPOUND_STRUCTURE, AUC(0-t)
measured = [
    ("CN(C)CCC=C1c2ccccc2C=Cc2ccccc21", "~6.27 ng·h/mL"),
]

----------
Each entry below lists one item and its recorded IC50 value.
Molecular target: dopamine D1 receptor (Homo sapiens, UniProt P21728)
Construct: expressed in transfected cells
Sequence (P21728 whole entry): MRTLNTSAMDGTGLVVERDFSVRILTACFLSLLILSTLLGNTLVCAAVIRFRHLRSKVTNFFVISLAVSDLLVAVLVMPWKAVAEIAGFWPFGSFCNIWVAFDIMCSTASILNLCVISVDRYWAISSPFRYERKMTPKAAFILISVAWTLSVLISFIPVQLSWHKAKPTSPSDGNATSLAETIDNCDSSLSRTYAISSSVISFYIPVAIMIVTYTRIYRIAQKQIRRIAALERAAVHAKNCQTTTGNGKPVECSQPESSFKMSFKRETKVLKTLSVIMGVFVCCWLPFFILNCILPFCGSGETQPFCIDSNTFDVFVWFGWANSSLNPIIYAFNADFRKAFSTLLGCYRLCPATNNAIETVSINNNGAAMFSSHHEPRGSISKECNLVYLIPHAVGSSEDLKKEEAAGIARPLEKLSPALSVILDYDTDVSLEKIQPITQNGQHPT
Test: G-protein-dependent signal transduction (Ca2+ mobilization, cAMP production or inositol triphosphate turnover)
Assay type: cell-based
Conditions: read-out: IC50 (nM) (Antagonist)
OBSERVED_PROPERTY: IC50 (nM)

# COMPOUND_STRUCTURE, READOUT_VALUE
measured = [
    ("CNCCC=C1c2ccccc2C=Cc2ccccc21", 300),
    ("CN(C)CCC=C1c2ccccc2C=Cc2ccccc21", 65),
]
